# ASSAY_SYSTEM: VLA4 (Homo sapiens, UniProt P05556+P13612)
# Construct: endogenous in cells; host or cells: Ramos cells
# Sequence (P13612 34-1032): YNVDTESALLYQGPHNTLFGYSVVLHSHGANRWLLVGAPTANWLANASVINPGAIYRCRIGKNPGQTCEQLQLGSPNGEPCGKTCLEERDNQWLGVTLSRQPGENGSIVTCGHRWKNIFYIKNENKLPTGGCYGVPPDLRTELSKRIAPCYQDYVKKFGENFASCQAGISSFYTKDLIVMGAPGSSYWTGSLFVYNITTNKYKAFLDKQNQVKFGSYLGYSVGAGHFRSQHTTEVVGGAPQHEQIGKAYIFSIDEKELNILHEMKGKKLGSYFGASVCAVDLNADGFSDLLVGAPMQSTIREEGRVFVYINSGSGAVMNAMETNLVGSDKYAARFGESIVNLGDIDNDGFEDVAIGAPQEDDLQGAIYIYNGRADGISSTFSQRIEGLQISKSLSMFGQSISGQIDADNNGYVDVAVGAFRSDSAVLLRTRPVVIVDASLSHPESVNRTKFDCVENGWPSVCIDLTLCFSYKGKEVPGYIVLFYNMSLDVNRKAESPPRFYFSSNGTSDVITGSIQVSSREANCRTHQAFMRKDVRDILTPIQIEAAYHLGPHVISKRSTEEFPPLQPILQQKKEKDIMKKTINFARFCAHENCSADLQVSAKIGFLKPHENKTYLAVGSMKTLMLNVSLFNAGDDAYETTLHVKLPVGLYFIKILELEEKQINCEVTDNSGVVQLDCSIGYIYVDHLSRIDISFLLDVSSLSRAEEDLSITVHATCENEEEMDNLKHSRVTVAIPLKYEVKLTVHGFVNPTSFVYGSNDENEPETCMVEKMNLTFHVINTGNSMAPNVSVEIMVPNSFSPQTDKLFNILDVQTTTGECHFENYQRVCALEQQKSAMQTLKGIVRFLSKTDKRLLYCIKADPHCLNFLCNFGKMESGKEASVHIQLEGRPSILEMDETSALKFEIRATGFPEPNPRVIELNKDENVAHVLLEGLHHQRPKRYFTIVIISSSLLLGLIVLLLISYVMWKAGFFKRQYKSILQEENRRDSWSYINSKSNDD
# Sequence (P05556 21-798): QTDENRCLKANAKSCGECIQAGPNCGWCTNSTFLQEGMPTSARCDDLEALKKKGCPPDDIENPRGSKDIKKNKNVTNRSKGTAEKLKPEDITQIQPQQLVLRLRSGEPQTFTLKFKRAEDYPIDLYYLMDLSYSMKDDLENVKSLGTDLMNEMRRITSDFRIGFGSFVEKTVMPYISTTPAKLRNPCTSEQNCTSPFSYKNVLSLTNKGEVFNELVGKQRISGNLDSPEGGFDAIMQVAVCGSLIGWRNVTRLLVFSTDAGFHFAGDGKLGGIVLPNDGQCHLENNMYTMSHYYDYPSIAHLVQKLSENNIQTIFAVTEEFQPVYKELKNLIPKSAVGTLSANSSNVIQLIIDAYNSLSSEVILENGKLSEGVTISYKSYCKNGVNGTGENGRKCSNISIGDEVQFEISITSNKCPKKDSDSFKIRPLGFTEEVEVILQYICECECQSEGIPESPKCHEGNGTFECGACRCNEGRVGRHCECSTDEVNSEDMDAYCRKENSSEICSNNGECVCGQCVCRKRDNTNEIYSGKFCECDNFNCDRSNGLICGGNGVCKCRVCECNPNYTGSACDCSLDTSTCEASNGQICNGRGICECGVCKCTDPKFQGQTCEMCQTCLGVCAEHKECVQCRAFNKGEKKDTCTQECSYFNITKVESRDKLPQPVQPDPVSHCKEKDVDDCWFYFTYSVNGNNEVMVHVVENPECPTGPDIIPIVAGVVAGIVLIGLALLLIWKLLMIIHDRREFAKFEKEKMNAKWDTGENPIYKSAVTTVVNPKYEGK
# ASSAY_REMARKS: Inhibition of VLA4-dependent adhesion to BSA-CS1
# Type: cell-based
# COND: binding of BCECF-labelled Ramos cells to BSA-CS1 coated wells, 2 mM MnCl2; read-out: IC50
Peptide text beside a SMILES is read from it. * marks the point of attachment. Fmoc = O=C(OCC1c2ccccc2-c2ccccc21)*; PhAc = O=C(Cc1ccccc1)*
ENDPOINT: IC50

{"columns": ["COMPOUND", "IC50"],
 "data": [
  ["Cc1c(C(=O)N[C@@H](CC(C)C)C(=O)N[C@@H](CC(=O)O)C(=O)N[C@H](C(=O)O)C(C)C)cnn1-c1ccccc1 [Compound 369]", "> 10000 nM"]
]}

Exercise: Please tell me: IC50 of CC(C)C[C@H](NC(=O)OCC1c2ccccc2-c2ccccc21)C(=O)N[C@@H](CC(=O)O)C(=O)N[C@H](C(=O)O)C(C)C [Compound 366] (Fmoc-Leu-Asp-Val-OH) , system VLA4 (Homo sapiens, UniProt P05556+P13612)?
Solution: > 10000 nM

Exercise: Please tell me: IC50 of CC(C)C(NC(=O)C(CC(=O)O)NC(=O)C(CC1CCCCC1)NC(=O)c1cc2ccccc2cn1)C(=O)O (centres unmarked) [Compound 85] , system VLA4 (Homo sapiens, UniProt P05556+P13612)?
Solution: > 10000 nM

Exercise: Please tell me: IC50 of Cc1ccccc1NC(=O)Nc1ccc(CC(=O)N[C@@H](CO)C(=O)N[C@@H](CC(=O)O)C(=O)N[C@H](CC(N)=O)C(N)=O)cc1 [Compound 282] , system VLA4 (Homo sapiens, UniProt P05556+P13612)?
Solution: < 50 nM

Exercise: Please tell me: IC50 of CSCC[C@H](NC(=O)[C@H](CC(=O)O)NC(=O)[C@H](CCC(N)=O)NC(=O)Cc1ccc(NC(=O)Nc2ccccc2C)cc1)C(N)=O [Compound 303] , system VLA4 (Homo sapiens, UniProt P05556+P13612)?
Solution: < 50 nM

Exercise: Please tell me: IC50 of CSCC[C@H](NC(=O)Cc1ccc(NC(=O)Nc2ccccc2C)cc1)C(=O)N[C@@H](CC(=O)O)C(=O)N[C@@H](CC(C)C)C(N)=O [Compound 220] , system VLA4 (Homo sapiens, UniProt P05556+P13612)?
Solution: < 50 nM

Exercise: Please tell me: IC50 of CC(C)C(NC(=O)C(CC(=O)O)NC(=O)C(NC(=O)c1cc2ccccc2cn1)C1CCCCC1)C(=O)O (centres unmarked) [Compound 83] , system VLA4 (Homo sapiens, UniProt P05556+P13612)?
Solution: > 10000 nM

Exercise: Please tell me: IC50 of CNC(=O)C(NC(=O)C(CC(=O)O)NC(=O)C(Cc1ccc(O)cc1)NC(=O)Cc1ccccc1)C(C)C (stereo not drawn) [Compound 129] (PhAc-Tyr-Asp-Val-NHMe; configuration not given here) , system VLA4 (Homo sapiens, UniProt P05556+P13612)?
Solution: > 10000 nM

Exercise: Please tell me: IC50 of Cc1ccccc1NC(=O)Nc1ccc(CC(=O)N[C@@H](CCC(N)=O)C(=O)N[C@@H](CC(=O)O)C(=O)N[C@H](C(N)=O)[C@@H](C)O)cc1 [Compound 302] , system VLA4 (Homo sapiens, UniProt P05556+P13612)?
Solution: < 50 nM
